system-under-test: Cytochrome P450 3A4 (Homo sapiens) (UniProt P08684)
Sequence (P08684 whole entry, looked up): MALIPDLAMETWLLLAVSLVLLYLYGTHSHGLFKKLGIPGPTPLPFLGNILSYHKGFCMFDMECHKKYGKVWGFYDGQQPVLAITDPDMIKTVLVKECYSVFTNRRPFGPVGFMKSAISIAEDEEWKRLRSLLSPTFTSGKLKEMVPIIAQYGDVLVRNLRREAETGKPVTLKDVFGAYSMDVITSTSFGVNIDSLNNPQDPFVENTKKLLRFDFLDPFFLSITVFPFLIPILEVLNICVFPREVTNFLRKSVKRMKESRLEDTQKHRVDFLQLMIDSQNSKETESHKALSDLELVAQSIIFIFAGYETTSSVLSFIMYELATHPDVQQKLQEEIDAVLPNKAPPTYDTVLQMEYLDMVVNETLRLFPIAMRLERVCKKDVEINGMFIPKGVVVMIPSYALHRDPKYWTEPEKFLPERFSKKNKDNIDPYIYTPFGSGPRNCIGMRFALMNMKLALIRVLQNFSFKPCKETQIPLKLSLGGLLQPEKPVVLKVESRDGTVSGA
test: qHTS Assay for Activators of Cytochrome P450 3A4 (AID 885); further: nearly all actives have a fitted effect of over 65% in size
condition-info: recombinant CYP3A4, Luciferin-PPXE luminescence, 60 min; series mostly up to 57.1 µM
Calls of active or inactive are those of the source. The call rests on the fitted dose curve; in most records, active means well fitted activation curve with a large enough effect; inconclusive means small, poorly fitted or top-dose-only effect; inactive means no such curve, though single readings can be large or run the other way.
Possible outcomes: active, inactive

{"molecule-smiles": "COc1ccccc1-c1nc(N(C)Cc2ccco2)c2ccccc2n1", "system-under-test": "Cytochrome P450 3A4 (Homo sapiens) (UniProt P08684)", "category": "inactive"}
{"molecule-smiles": "FC(F)(F)c1ccccc1-c1cncnc1NCCN1CCOCC1", "system-under-test": "Cytochrome P450 3A4 (Homo sapiens) (UniProt P08684)", "category": "inactive"}
{"molecule-smiles": "N#Cc1cccc(-c2nc3cnc(N4CCNCC4)nc3n(C3CC3)c2=O)c1", "system-under-test": "Cytochrome P450 3A4 (Homo sapiens) (UniProt P08684)", "category": "inactive"}
{"molecule-smiles": "COc1ccc(-c2nc3cnc(Nc4cccc(OC)c4)nc3n(Cc3cccs3)c2=O)cc1", "system-under-test": "Cytochrome P450 3A4 (Homo sapiens) (UniProt P08684)", "category": "inactive"}
{"molecule-smiles": "CN1CCN(c2ncc3nc(-c4cn(C)c5ccccc45)c(=O)n(-c4ccccc4)c3n2)CC1", "system-under-test": "Cytochrome P450 3A4 (Homo sapiens) (UniProt P08684)", "category": "inactive"}
{"molecule-smiles": "O=C(c1cccc(F)c1)N1CCC[C@@]2(CCN(Cc3ccncc3)C2)C1", "system-under-test": "Cytochrome P450 3A4 (Homo sapiens) (UniProt P08684)", "category": "inactive"}
{"molecule-smiles": "CC(C)CN1CC[C@@]2(CCCN(C(=O)c3cc(C(F)(F)F)cc(C(F)(F)F)c3)C2)C1", "system-under-test": "Cytochrome P450 3A4 (Homo sapiens) (UniProt P08684)", "category": "inactive"}
{"molecule-smiles": "Cc1ccccc1-c1cc(Nc2ccc(F)cc2)ncn1", "system-under-test": "Cytochrome P450 3A4 (Homo sapiens) (UniProt P08684)", "category": "inactive"}
{"molecule-smiles": "CCNc1ncc2nc(CCc3ccccc3)c(=O)n(Cc3ccc(F)cc3)c2n1", "system-under-test": "Cytochrome P450 3A4 (Homo sapiens) (UniProt P08684)", "category": "inactive"}
{"molecule-smiles": "O=c1c(-c2cc(F)cc(F)c2)nc2cncnc2n1Cc1ccccc1Cl", "system-under-test": "Cytochrome P450 3A4 (Homo sapiens) (UniProt P08684)", "category": "inactive"}
{"molecule-smiles": "Cn1cc(-c2nc3cnc(Oc4ccccc4)nc3n(CCC#N)c2=O)c2ccccc21", "system-under-test": "Cytochrome P450 3A4 (Homo sapiens) (UniProt P08684)", "category": "inactive"}
{"molecule-smiles": "Cn1cc(-c2nc3cncnc3n(CCN)c2=O)c2ccccc21", "system-under-test": "Cytochrome P450 3A4 (Homo sapiens) (UniProt P08684)", "category": "inactive"}
{"molecule-smiles": "Cn1cccc1C(=O)N1CCC2(CC1)CN(c1ccccn1)C2", "system-under-test": "Cytochrome P450 3A4 (Homo sapiens) (UniProt P08684)", "category": "active"}
{"molecule-smiles": "COCCn1c(=O)c(C)nc2cnc(Oc3cccc(Cl)c3)nc21", "system-under-test": "Cytochrome P450 3A4 (Homo sapiens) (UniProt P08684)", "category": "inactive"}
{"molecule-smiles": "Cc1ccccc1-c1cncnc1NCCN1CCOCC1", "system-under-test": "Cytochrome P450 3A4 (Homo sapiens) (UniProt P08684)", "category": "inactive"}
{"molecule-smiles": "CN(Cc1ccco1)c1ccnc(-c2cccc(C#N)c2)n1", "system-under-test": "Cytochrome P450 3A4 (Homo sapiens) (UniProt P08684)", "category": "inactive"}
{"molecule-smiles": "COCCn1c(=O)c(-c2cccs2)nc2cnc(OC)nc21", "system-under-test": "Cytochrome P450 3A4 (Homo sapiens) (UniProt P08684)", "category": "inactive"}
{"molecule-smiles": "COc1ccccc1-c1ccc2ncnc(NCc3cnc(C)cn3)c2c1", "system-under-test": "Cytochrome P450 3A4 (Homo sapiens) (UniProt P08684)", "category": "inactive"}
{"molecule-smiles": "O=c1c(-c2ccc(Cl)cc2)nc2cncnc2n1Cc1ccccc1Cl", "system-under-test": "Cytochrome P450 3A4 (Homo sapiens) (UniProt P08684)", "category": "inactive"}
{"molecule-smiles": "CS(=O)(=O)N1CCC2(CC1)CN(c1ncccn1)C2", "system-under-test": "Cytochrome P450 3A4 (Homo sapiens) (UniProt P08684)", "category": "inactive"}
{"molecule-smiles": "NC(=NCc1ccc(Cl)c(Cl)c1)NC(=O)c1nc(Cl)c(N)nc1N", "system-under-test": "Cytochrome P450 3A4 (Homo sapiens) (UniProt P08684)", "category": "inactive"}
{"molecule-smiles": "O=c1c(-c2ccc(F)c(F)c2)nc2cncnc2n1Cc1ccccc1Cl", "system-under-test": "Cytochrome P450 3A4 (Homo sapiens) (UniProt P08684)", "category": "inactive"}
{"molecule-smiles": "COc1cccc(-c2cc(NCCc3c[nH]c4ccc(OC)cc34)ncn2)c1", "system-under-test": "Cytochrome P450 3A4 (Homo sapiens) (UniProt P08684)", "category": "inactive"}

From: PubChem BioAssay (NCATS)
